Listed here are binders together with their documented koff.
# ASSAYED_TARGET: T1, recombinant full-length Tau protein, longest isoform (Tau 2N4R) (human, UniProt P10636-8 1-441, biotinylated with NHS-biotin for SPR; 15N-labelled for NMR)
# T1 construct: range 1-441; Expressed in E. coli from pET15b-Tau; also called biotinylated-Tau; 15N-Tau
# T1 sequence (P10636 other isoform, or with tags, fused parts or gaps limits assumed): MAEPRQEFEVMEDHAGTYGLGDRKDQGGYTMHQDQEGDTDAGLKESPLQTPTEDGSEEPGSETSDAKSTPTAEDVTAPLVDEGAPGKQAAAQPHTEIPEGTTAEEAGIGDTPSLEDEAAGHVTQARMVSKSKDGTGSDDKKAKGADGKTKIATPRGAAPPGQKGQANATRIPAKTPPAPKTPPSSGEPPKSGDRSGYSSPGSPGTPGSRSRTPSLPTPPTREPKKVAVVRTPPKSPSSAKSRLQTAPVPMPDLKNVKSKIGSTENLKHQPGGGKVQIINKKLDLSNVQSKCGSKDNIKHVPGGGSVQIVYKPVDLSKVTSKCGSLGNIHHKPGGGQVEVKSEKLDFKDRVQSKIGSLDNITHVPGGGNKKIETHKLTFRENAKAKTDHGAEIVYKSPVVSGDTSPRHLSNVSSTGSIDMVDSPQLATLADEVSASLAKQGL
# PROCEDURE_SUMMARY: SPR (Biacore T200), single-cycle kinetics, biotinylated Tau on streptavidin chip, VHH injected 0.125-2 µM
Just the number please, in s⁻¹, no unit attached.

Some binders with known koff results, for comparison:
>  <BINDER>
VHH Mut5 (VHH, Variant of Z70; also called VH Mut5) VHH: EVQLQASGGVFVQSGGSLRLSCAASGATSTFDGMGWFRQAPGKEREFVSAISYEQGSYTYYADSVKGRFTISRDNSKNMVYLQMNSLRAEDTASYYCAPAYEGDLYAFDSYGGQGTQVTVSS

>  <OBSERVED_MEASUREMENT>
0.000883

$$$$
>  <BINDER>
VHH Mut15 (VHH, Variant of Z70; also called VH Mut15) VHH: EVQLQASGGVFVQSGGSLRLSCAASGATSTFDGMGWFRQAPGKEREFVSAISYEQGSYTYYADSVKGRFTISRDNSKNMVYLQMNSLGAEDTATYYCASAYEGDLYAFDSYEGQGTQVTVSS

>  <OBSERVED_MEASUREMENT>
0.00203

$$$$
>  <BINDER>
VHH Mut9 (VHH, Variant of Z70; also called VH Mut9) VHH: EVQLQASGGVFVQSGGSLRLSCAASGATSTFDGMGWFRQAPGKEREFVSAISYEQGSYTYYADSVKGRFTISRDNSKNMVYLQMNSLRAEDTATYYCASAYEGDLYAFDSYGEQGTQVTVSS

>  <OBSERVED_MEASUREMENT>
0.00205

$$$$

Now for another entry.
Query :: Return reported koff; argument: VHH Mut14 (VHH, Variant of Z70; also called VH Mut14) VHH: EVQLQASGGVFVQSGGSLRLSCAASGATSIFDGMGWFRQAPGKEREFVSAISYGQGSYTYYADSVKGRFTISRDNSKNMVYLQMNSLRAEDTATYYCAPAYEGDLYAFDSYGEQGTQVTVSS
Result :: 0.0014
